assay: Tmax (0-96h) of unlabeled aliskiren hemifumarate following intravenous administration of aliskiren hemifumarate at 10 mg.Kg-1 level in rat; assay type: ADME, organism-based; conditions: Albino HAN:WIST, plasma

| molecule | Tmax [min] |
| --- | --- |
| COCCCOc1cc(C[C@@H](C[C@H](N)[C@@H](O)C[C@H](C(=O)NCC(C)(C)C(N)=O)C(C)C)C(C)C)ccc1OC.COCCCOc1cc(C[C@@H](C[C@H](N)[C@@H](O)C[C@H](C(=O)NCC(C)(C)C(N)=O)C(C)C)C(C)C)ccc1OC.O=C(O)/C=C/C(=O)O [ALISKIREN FUMARATE] | 4.98 |
